# procedure_details: CCTE_Shafer_MEA_acute_network_burst_percentage: CCTE's Neural Acute Assay for Percentage of Network Bursts, Shafer Lab (AID 2284022);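 note: curves fitted for loss so actives lower network burst percentage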
# Method: CCTE_Shafer_MEA_acute assay is conducted using Axion Biosystems 48 well microelectrode array (MEA) plates and Maestro recording system. Each well of the MEA plate contains a grid of 16 microelectrodes embedded in the culture surface. Electrically active cells, such as neurons, can be cultured over the electrodes, and electrical activity in these cells can be recorded extracellularly. […]
Activity calls are given as the source filed them. Rule for the calls: active = hit-call score of the fitted dose curve at least 0.9, where 1 is the maximum; inactive = score below 0.9.
Outcomes: active, inactive

{"compound": "Nc1c(Cl)cc([N+](=O)[O-])cc1Cl", "classification": "active"}
{"compound": "C=C(C)[C@H]1Cc2c(ccc3c2O[C@@H]2COc4cc(OC)c(OC)cc4[C@@H]2C3=O)O1", "classification": "inactive"}
{"compound": "O=C(O)c1cc(Oc2ccc(C(F)(F)F)cc2Cl)ccc1[N+](=O)[O-]", "classification": "inactive"}
{"compound": "CC(=NC#N)N(C)Cc1ccc(Cl)nc1", "classification": "inactive"}
{"compound": "CCOP(=S)(OCC)Oc1ccc2c(C)c(Cl)c(=O)oc2c1", "classification": "active"}
{"compound": "COP(=O)(OC)C(O)C(Cl)(Cl)Cl (stereo unspecified)", "classification": "inactive"}

* * *

# Read-out: Interleukin-8 (IL8), CXCL8 (gene 3576)
# procedure_details: BSK_LPS_IL8: BioMAP Diversity Plus: LPS Assay for Interleukin-8 (IL8) Biomarker Activity (AID 2283078)
# setup_conditions: primary human HUVEC with PBMC; actives raise or lower the signal
Activity calls are given as the source filed them. Rule for the calls: active = hit-call score of the fitted dose curve at least 0.9, where 1 is the maximum; inactive = score below 0.9.
Outcomes: Y (active), N (inactive)

{"compound": "CNC(=O)ON=C(C)SC", "classification": "N"}
{"compound": "S=C1NCCN1", "classification": "N"}
{"compound": "CC(C1CC1)C(O)(Cn1cncn1)c1ccc(Cl)cc1 (stereo not given)", "classification": "N"}
{"compound": "CC(C)[C@H](C(=O)O[C@H](C#N)c1cccc(Oc2ccccc2)c1)c1ccc(Cl)cc1", "classification": "Y"}
{"compound": "CC(COc1ccc(Oc2ccccc2)cc1)Oc1ccccn1 (stereo not given)", "classification": "N"}
{"compound": "CCC(=NOC/C=C/Cl)C1=C(O)CC(C2CCOCC2)CC1=O (stereo not given)", "classification": "N"}
{"compound": "C[N+]1(C)CCCCC1", "classification": "N"}
{"compound": "COc1ccc(C(=CC(=O)N2CCOCC2)c2ccc(Cl)cc2)cc1OC", "classification": "N"}
{"compound": "CCc1cnc(C2=NC(C)(C(C)C)C(=O)N2)c(C(=O)O)c1 (stereo not given)", "classification": "N"}
{"compound": "O=C(O)c1cc(Oc2ccc(C(F)(F)F)cc2Cl)ccc1[N+](=O)[O-]", "classification": "N"}

* * *

# procedure_details: CEETOX_H295R_OHPREG: CeeTox H295R High-throughput Steroidogenesis Assay for OH-Pregnenolone (OHPREG) (AID 2283434)
# setup_conditions: actives raise or lower the signal
Calls of active or inactive are those of the source. How the source made its calls: active means hit-call score of the fitted dose curve at least 0.9, where 1 is the maximum; inactive means score below 0.9.
Outcomes: active, inactive

{"compound": "Nc1nc(N)nc(NC2CC2)n1", "classification": "inactive"}
{"compound": "CCOP(=S)(OCC)Oc1ccc2c(C)c(Cl)c(=O)oc2c1", "classification": "inactive"}
{"compound": "C[Si](Cn1cncn1)(c1ccc(F)cc1)c1ccc(F)cc1", "classification": "inactive"}
{"compound": "CNc1cnn(-c2cccc(C(F)(F)F)c2)c(=O)c1Cl", "classification": "inactive"}
{"compound": "CCc1cccc(C)c1N(C(=O)CCl)C(C)COC (stereo unspecified)", "classification": "inactive"}
{"compound": "COc1ccc(C(=CC(=O)N2CCOCC2)c2ccc(Cl)cc2)cc1OC", "classification": "inactive"}
{"compound": "CCOP(=S)(OCC)Oc1cc(C)nc(C(C)C)n1", "classification": "inactive"}
{"compound": "CC(C1CC1)C(O)(Cn1cncn1)c1ccc(Cl)cc1 (stereo unspecified)", "classification": "active"}
{"compound": "CCCSP(=O)(OCC)Oc1ccc(Br)cc1Cl (stereo unspecified)", "classification": "inactive"}
{"compound": "CCCCN(CC)c1c([N+](=O)[O-])cc(C(F)(F)F)cc1[N+](=O)[O-]", "classification": "inactive"}
{"compound": "CNC(=O)Oc1cccc2c1OC(C)(C)O2", "classification": "inactive"}

* * *

# Read-out: TIMP metallopeptidase inhibitor 2 (TIMP2), TIMP2 (gene 7077)
# procedure_details: BSK_KF3CT_TIMP2: BioMAP Diversity Plus: KF3CT Assay for TIMP metallopeptidase inhibitor 2 (TIMP2) Biomarker Activity (AID 2283071)
# setup_conditions: primary human keratinocytes with fibroblasts; actives raise or lower the signal
Active and inactive are the calls of the source. Rule for the calls: active = hit-call score of the fitted dose curve at least 0.9, where 1 is the maximum; inactive = score below 0.9.

{"molecule": "CN1COCN(Cc2cnc(Cl)s2)C1=N[N+](=O)[O-]", "AC50": "inactive"}
{"molecule": "CCOP(=O)(SC(C)CC)N1CCSC1=O (stereo unspecified)", "AC50": "inactive"}
{"molecule": "CON=C(C(=O)OC)c1ccccc1CON=C(C)c1cccc(C(F)(F)F)c1", "AC50": "inactive"}
{"molecule": "CCCCSP(=O)(SCCCC)SCCCC", "AC50": "inactive"}
{"molecule": "CN(C)C(=O)Nc1cccc(C(F)(F)F)c1", "AC50": "inactive"}
{"molecule": "COP(=O)(OC)OC(Br)C(Cl)(Cl)Br (stereo unspecified)", "AC50": "31.3 µM (active)"}

* * *

# Read-out: matrix metalloproteinase-3 (MMP3), MMP3 (gene 4314)
# procedure_details: LTEA_HepaRG_MMP3: Life Technologies and Expression Analysis (LTEA) Assay for matrix metalloproteinase-3 (MMP3) using HepaRG (AID 2283519)
# setup_conditions: mRNA level, 48 h; actives raise or lower the signal
Active and inactive are the calls of the source. Rule for the calls: active = hit-call score of the fitted dose curve at least 0.9, where 1 is the maximum; inactive = score below 0.9.
Outcomes: active, inactive

{"molecule": "Cc1cc(C2CC2)nc(Nc2ccccc2)n1", "classification": "inactive"}
{"molecule": "CCc1cccc(C)c1N(C(=O)CCl)C(C)COC (centres undefined)", "classification": "inactive"}
{"molecule": "CON=C(C(=O)OC)c1ccccc1CON=C(C)c1cccc(C(F)(F)F)c1", "classification": "inactive"}
{"molecule": "C#CCC1=C(C)C(OC(=O)C2C(C=C(C)C)C2(C)C)CC1=O (centres undefined)", "classification": "active"}

* * *

# Read-out: sulfotransferase (SULT2A), SULT2A1 (gene 6822)
# procedure_details: CLD_SULT2A_6hr: CellzDirect (CLD) Gene Expression Assay for sulfotransferase (SULT2A) at 6 hours (AID 2283669);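 note: hits raise transcript level above the DMSO vehicle baseline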
Records with an inconclusive call do not appear. Activity calls are given as the source filed them. How the source made its calls: active means hit-call score of the fitted dose curve at least 0.9, where 1 is the maximum; inconclusive means response in the unintended direction; inactive means score below 0.9.
metric: outcome

{"structure_smiles": "CCC(CC)Nc1c([N+](=O)[O-])cc(C)c(C)c1[N+](=O)[O-]", "endpoint_value": "inactive"}
{"structure_smiles": "CON=C(C(=O)OC)c1ccccc1CON=C(C)c1cccc(C(F)(F)F)c1", "endpoint_value": "inactive"}
{"structure_smiles": "C[Si](Cn1cncn1)(c1ccc(F)cc1)c1ccc(F)cc1", "endpoint_value": "inactive"}

* * *

# Read-out: Paternally Expressed 10 (PEG10), PEG10 (gene 23089)
# procedure_details: LTEA_HepaRG_PEG10: Life Technologies and Expression Analysis (LTEA) Assay for Paternally Expressed 10 (PEG10) using HepaRG (AID 2283520)
# setup_conditions: mRNA level, 48 h; actives raise or lower the signal
The source made the active and inactive calls. How the source made its calls: active means hit-call score of the fitted dose curve at least 0.9, where 1 is the maximum; inactive means score below 0.9.
Outcomes: active, inactive

{"compound": "CCC(CC)Nc1c([N+](=O)[O-])cc(C)c(C)c1[N+](=O)[O-]", "classification": "active"}
{"compound": "CC(C)=CC1C(C(=O)OCN2C(=O)C3=C(CCCC3)C2=O)C1(C)C (configuration not stated)", "classification": "inactive"}
{"compound": "CCOP(=O)(SC(C)CC)N1CCSC1=O (configuration not stated)", "classification": "active"}
{"compound": "CC[C@H](C)[C@H]1O[C@]2(C=C[C@@H]1C)C[C@@H]1C[C@@H](C/C=C(\\C)[C@@H](O[C@H]3C[C@H](OC)[C@@H](O[C@H]4C[C@H](OC)[C@@H](NC)[C@H](C)O4)[C@H](C)O3)[C@@H](C)/C=C/C=C3\\CO[C@@H]4[C@H](O)C(C)=C[C@@H](C(=O)O1)[C@]34O)O2", "classification": "active"}
{"compound": "CC(=NC#N)N(C)Cc1ccc(Cl)nc1", "classification": "inactive"}
{"compound": "CCCSP(=O)(OCC)Oc1ccc(Br)cc1Cl (configuration not stated)", "classification": "inactive"}
{"compound": "CCc1cccc(CC)c1N(COC)C(=O)CCl", "classification": "inactive"}
{"compound": "COP(=O)(OC)OC(Br)C(Cl)(Cl)Br (configuration not stated)", "classification": "inactive"}
{"compound": "CC1(C(=O)Nc2ccc(O)c(Cl)c2Cl)CCCCC1", "classification": "inactive"}
{"compound": "CNC(=O)ON=C(SC)C(=O)N(C)C", "classification": "inactive"}
{"compound": "CNC(=O)ON=C(C)SC", "classification": "inactive"}
{"compound": "Cc1ccn2nc(S(=O)(=O)Nc3c(F)cccc3F)nc2n1", "classification": "inactive"}
{"compound": "CN(C)NC(=O)CCC(=O)O", "classification": "inactive"}
{"compound": "COc1cc(OC)nc(Sc2cccc(Cl)c2C(=O)O)n1", "classification": "inactive"}
{"compound": "CCCCN(CC)c1c([N+](=O)[O-])cc(C(F)(F)F)cc1[N+](=O)[O-]", "classification": "inactive"}
{"compound": "CCCOCC(=Nc1ccc(Cl)cc1C(F)(F)F)n1ccnc1", "classification": "active"}
{"compound": "Nc1c(Cl)cc([N+](=O)[O-])cc1Cl", "classification": "active"}
{"compound": "CN(C)C(=O)Nc1cccc(C(F)(F)F)c1", "classification": "inactive"}
{"compound": "CCNc1nc(Cl)nc(NC(C)(C)C#N)n1", "classification": "active"}
{"compound": "CCOP(=O)(OCC)Oc1cc(C)nc(C(C)C)n1", "classification": "inactive"}
{"compound": "COc1cccc(C(=O)NN(C(=O)c2cc(C)cc(C)c2)C(C)(C)C)c1C", "classification": "inactive"}
{"compound": "CCCOc1nn(C(=O)NS(=O)(=O)c2ccccc2C(=O)OC)c(=O)n1C", "classification": "inactive"}
{"compound": "CCc1cccc(C)c1N(C(=O)CCl)C(C)COC (configuration not stated)", "classification": "inactive"}
{"compound": "Cc1cc(C2CC2)nc(Nc2ccccc2)n1", "classification": "inactive"}
{"compound": "CNC(=O)Oc1cccc2c1OC(C)(C)O2", "classification": "inactive"}
{"compound": "CSC1=N[C@@](C)(c2ccccc2)C(=O)N1Nc1ccccc1", "classification": "active"}
{"compound": "O=c1ccc(=O)[nH][nH]1", "classification": "inactive"}
{"compound": "S=C1NCCN1", "classification": "inactive"}
{"compound": "CCCCOC(=O)c1ccccc1C(=O)O", "classification": "inactive"}
{"compound": "COc1ccc(C(=CC(=O)N2CCOCC2)c2ccc(Cl)cc2)cc1OC", "classification": "active"}
{"compound": "CCCSP(=O)(OCC)SCCC", "classification": "inactive"}
{"compound": "CON=C(C(=O)OC)c1ccccc1CON=C(C)c1cccc(C(F)(F)F)c1", "classification": "inactive"}
